Field: TGI. Provide a value for each of the molecules that follow.
Test system: COLO 205 colon
assay.info: NCI tumour cell line growth inhibition, 48 h

Data point: `CCC(=C/[C@H](C)C/C=C/C(C)=C/[C@@H](C)C(=O)[C@@H](C)[C@H](O)[C@@H](C)CC)/C=C/[C@@H]1OC(=O)C=C[C@@H]1C` ; TGI = < 0.005 µM

Data point: `NC(=O)n1ncc(Cl)c(Cl)c1=O` ; TGI = > 100 µM

Data point: COC1/C=C/C(C)C(OC)CC(O)/C=C/C(C)C(C(C)C(OC)C(C)CCC(=O)C(C)C(C/C=C/N(C)C=O)OC)OC(=O)/C=C/C=C(\C)CC(OC)CC2=CC(=O)O[C@@H](C(C)C(OC)C1)[C@H]2O (stereo partly drawn) ; TGI = 0.418 µM

Data point: O=C1CCC(C(=O)O)C2=C1CCCC2 (stereo not drawn) ; TGI = > 100 µM

Data point: `Cc1nc2ccccc2c(=O)n1NC(=S)Nc1ccccc1` ; TGI = > 100 µM

Data point: `Nc1ncnc2nc(N3CCN(CCO)CC3)[nH]c12` ; TGI = > 100 µM

Data point: `Nc1ccc2c(c1)Cc1ccccc1-2` ; TGI = > 100 µM

Data point: `CCOCCOc1ccc(OCCOCC)cc1` ; TGI = 33.3 µM

Data point: CC(=O)/C=C\C1CC2C=CC1C2 (stereo not drawn) ; TGI = > 100 µM

Data point: `Cc1ccc(C)c(COc2cc(NC(=O)c3ccc4c(c3)OCO4)ccc2N(C)S(C)(=O)=O)c1` ; TGI = 0.816 µM

Data point: COc1cccc2c1C(=O)c1c(O)c3c(c(O)c1C2=O)CC(O)(C(=O)CO)CC3OC1CC(N)C(I)C(C)O1 (stereo not drawn) ; TGI = > 100 µM

Data point: CC(O)(CCCCCl)c1nc2ccccc2s1 (stereo not drawn) ; TGI = > 100 µM

Data point: `C/C(CC(=O)Nc1ccc(C)c(C)c1)=N\NC(N)=S` ; TGI = > 100 µM

Data point: `O=C(O)c1sccc1O` ; TGI = > 100 µM

Data point: `O=C1OC(c2ccccc2)=N/C1=C\c1ccc(F)cc1` ; TGI = > 100 µM

Data point: `CC(=NCC(=O)O)c1ccccc1` ; TGI = > 100 µM

Data point: `O=c1[nH]c2ccc(N=Cc3c(O)[nH]c4ccccc34)cc2[nH]1` ; TGI = > 25 µM

Data point: `O=C(CNc1c(Cl)cccc1Cl)Nc1ccc(-c2nc3ccccc3s2)cc1` ; TGI = 4.81 µM

Data point: O=C1CCC(c2nc3cc(Cl)ccc3o2)C(=O)N1 (stereo not drawn) ; TGI = > 100 µM

Data point: `CC/C=C\C/C=C\C[C@H]1C/C=C2/C(=O)C=C[C@@H]2C/C=C\CCC(=O)O1` ; TGI = 2.82 µM

Data point: `O=[N+]([O-])c1cccc(-c2ncnc(-c3cccc([N+](=O)[O-])c3)n2)c1` ; TGI = > 100 µM

Data point: Nc1ccn(C2OC(COP(=O)(O)OCC3OC(n4cc(F)c(=O)[nH]c4=O)CC3O)C(O)C2O)c(=O)n1 (stereo not drawn) ; TGI = > 100 µM

Data point: CSc1nc(SC)c2cnn(CC3CO3)c2n1 (stereo not drawn) ; TGI = 35.5 µM

Data point: O=C1OC(=O)C2=C1C(c1cccs1)C=C(c1cccnc1)N2c1ccncc1 (stereo not drawn) ; TGI = 31.8 µM

Data point: O=C(O)CCC(NC(=O)c1ccc(Nc2nc3ccc(C(F)(F)F)cc3nc2-c2ccccc2)cc1)C(=O)O (stereo not drawn) ; TGI = > 100 µM

Data point: `Oc1ccc(-c2cn3ccsc3n2)cc1O` ; TGI = > 100 µM

Data point: `COc1cc2c(c(OC)c1OC)-c1ccc(SC)c(=O)cc1[C@@H](OC(=O)c1ccncc1)CC2` ; TGI = > 100 µM

Data point: `CCOC(=O)c1c(-c2ccccc2)oc(=O)c(Cc2cccc3cccnc23)c1-c1ccccc1` ; TGI = > 10 µM

Data point: `O=c1[nH]nc(Cc2ccccc2)n1O` ; TGI = > 100 µM

Data point: `CN(C)c1ccc(/C=N/N=C2\C(=O)Nc3c(Cl)cc(Cl)cc32)cc1` ; TGI = > 100 µM

Data point: `c1ccc(CSc2nnc3c4c5c(sc4nc(-c4cccnc4)n23)CCCCCC5)cc1` ; TGI = 3.33 µM

Data point: C=C(C)C(CC=C(C)C)Cc1c(O)cc(OC)c2c1OC(c1ccc(O)cc1O)C(O)C2=O (stereo not drawn) ; TGI = 30 µM

Data point: COC(=O)C1=C(c2cc(OC)c(OC)c(OC)c2)OC(c2ccc3c(c2)OCO3)C1 (stereo not drawn) ; TGI = 26.8 µM

Data point: `ClC1=C(Cl)C(Cl)=C(Cl)C1=Cc1ccccc1` ; TGI = 2.65 µM

Data point: `O=C1Nc2ccccc2C1(c1c[nH]c2ccccc12)c1c[nH]c2ccccc12` ; TGI = 3.86 µM

Data point: `ClCCN1CCOC1=C1C=CC=C1` ; TGI = > 100 µM

Data point: `COc1ccc2c(c1OC)CO[C@@H]2[C@H]1c2c(c(Br)c3c(c2OC)OCO3)CCN1C` ; TGI = 85.4 µM

Data point: CC(C1=CC=C2[C@@H]3CCC4CC(N(C)C)CC[C@]4(C)C3CC[C@]12C)N(C)C=O (stereo partly drawn) ; TGI = > 100 µM

Data point: C/C=C\C(CC(=O)O)CN1CCC2=C(C1)C(S(=O)(=O)C(F)(F)F)c1ccccc12 (stereo not drawn) ; TGI = > 100 µM

Data point: `O=[N+]([O-])c1nccn1COCCI` ; TGI = > 100 µM

Data point: `CN(C)CCCNC(=O)N/N=C\c1cccc2ccccc12` ; TGI = > 10 µM

Data point: `CC(C)(C)c1ccc2c(c1)C(=O)c1ccccc1C2=O` ; TGI = 60.3 µM

Data point: CN1C(=O)N(C)C(N2CCCC2)c2c1nc1ccccn1c2=O (stereo not drawn) ; TGI = > 100 µM
